B1: mRNA-splicing (parent)
chain: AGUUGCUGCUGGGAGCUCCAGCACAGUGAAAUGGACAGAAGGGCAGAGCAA

- Variants of: B1
- test name: exon inclusion enrichment index; higher = more inclusion; WT1 exon 5 minigene, HEK293
Entry flag: class 1 if exon inclusion enrichment index reaches 1; class 0 if it does not.

{"columns": ["variant identifier", "group"],
 "data": [
  ["G5U G8U C9U C36G A37U", "class 0"],
  ["G5C C6A U7C G8A U10A A45G G46U", "class 0"],
  ["C6A U7A C9A U10A A25C G26C", "class 1"],
  ["G5C C6A U7C G8A U10G G11U", "class 1"],
  ["G5A C6U U7A G8U C9A G46U", "class 0"],
  ["C6A U7A C9A U10A G12A G13A", "class 1"],
  ["G33A G34A", "class 0"],
  ["G11A G12A", "class 0"],
  ["G5A C6U U7A G8U C9A C19A A20U", "class 0"],
  ["G5C C6U G8C C9U U10C A47U G48C", "class 1"],
  ["G5A C6U U7A G8U C9A A20U G21C", "class 0"],
  ["G5C C6U U7A G8U C9A", "class 0"],
  ["G5U G8U C9U U10G G11C", "class 0"],
  ["G5A C6A U7C G8A U10A", "class 0"],
  ["G5C C6G G8C C9U U10C", "class 1"],
  ["G5A U7C G8A C9G U10G", "class 0"],
  ["G5A C6G U7G C9A A47C", "class 0"],
  ["G5A C6G U7G C9A C22G", "class 0"],
  ["C6A U7A C9A U10A A25U G26C", "class 0"],
  ["G5C C6U G8C C9U U10C G11A G12U", "class 0"],
  ["G2A G5C C6G U7C U10C", "class 1"],
  ["C6A U7A C9A U10A A40C", "class 1"],
  ["G43C C44U", "class 0"],
  ["G5A C6G U7G C9A A35G C36G", "class 0"],
  ["G5A C6G U7G U10C", "class 0"],
  ["A40U", "class 0"],
  ["U3G U4C G5U G8U C9U", "class 0"],
  ["C6A U7C U10G", "class 1"],
  ["G5C C6G U7C U10C A47C G48A", "class 1"],
  ["G5C C6G U7C U10C G28C", "class 1"],
  ["G5A C6G U7G C9A A14C G15A", "class 0"],
  ["G5A C6U U7A G8U C9A G34C A35U", "class 0"],
  ["G2C U3G G5A C6G U7G C9A", "class 0"],
  ["G5A U7G G8U U10C", "class 1"],
  ["G5C C6G U7A G8A U10A", "class 0"],
  ["G5U G8U C9U A25G", "class 0"],
  ["U3C U4G", "class 0"],
  ["G5C C6G U7C U10C A14G", "class 1"],
  ["G5U G8A C9A", "class 0"],
  ["C6A U7A C9A U10A C18U C19A", "class 0"],
  ["C6A U7C C9A U10C A31U U32C", "class 1"],
  ["U3C U4G G5A C6U U7A G8U C9A", "class 0"],
  ["C6A U7C C9A U10C G34U A35G", "class 1"],
  ["C6U U7G C9A", "class 0"],
  ["C6A U7G G8C C9A U10A", "class 0"],
  ["G5C C6U G8C C9U U10C U17C C18U", "class 1"],
  ["G2C U3C C6A U7A C9A U10A", "class 0"],
  ["C6A U7A C9A U10A A23C C24G", "class 1"],
  ["G5A C6G U7G C9A A37U", "class 0"],
  ["G5A C6G U7G C9A C19A", "class 0"],
  ["G5A U7C G8A U10C A25G G26C", "class 1"],
  ["G5C C6U G8C C9U U10C C19U A20C", "class 0"],
  ["G5C C6A U7C G8A U10A A40C G41C", "class 0"],
  ["G5A C6U U7A G8U C9A U10C G11U", "class 0"],
  ["C6A U7C G8A C9A U10C", "class 1"],
  ["U3G U4A C6A U7C C9A U10C", "class 1"],
  ["G5C C6G U7C U10C A45C G46U", "class 1"],
  ["C6A U7A C9A U10A G15U C16A", "class 0"],
  ["G2C G5A C6G U7G C9A", "class 0"],
  ["G5A C6U U7A G8U C9G U10C", "class 0"],
  ["G5C C6G U7C U10C A47U G48C", "class 1"],
  ["G5C C6G U7C U10C G33C G34C", "class 1"],
  ["G5U G8U C9U G34A", "class 0"],
  ["G5A U7C G8A U10C G34A A35U", "class 0"],
  ["C6A U7C C9A U10C A25C G26C", "class 1"],
  ["G2C U3C G5C C6U G8C C9U U10C", "class 1"],
  ["G5U C6U U7A G8U C9U", "class 0"],
  ["C6A U7A C9A U10A A39G A40U", "class 0"],
  ["G5A U7C G8A U10C A45C G46C", "class 1"],
  ["G5C C6U G8C C9U U10C A31C U32C", "class 1"],
  ["G5A U7C G8C C9G U10C", "class 1"],
  ["G5A U7C G8A U10C G13C", "class 1"],
  ["C6A U7A C9A U10A G42C G43C", "class 1"],
  ["G5C C6U G8C C9U U10C C24U", "class 0"],
  ["G5C C6G U7C U10C G46U", "class 1"],
  ["G5C C6G U7C U10C A20G G21C", "class 1"],
  ["G5A C6G U7G C9A A25G G26U", "class 0"],
  ["C6A U7C C9A U10C A14C", "class 1"],
  ["G2A U3A C6A U7A C9A U10A", "class 0"],
  ["C6A U7A C9A U10A G26A U27G", "class 1"],
  ["G5C C6G U7C U10C G12A G13U", "class 0"],
  ["A20G G21C", "class 1"],
  ["C6A U7A C9A U10A A45U G46U", "class 0"],
  ["A31U U32C", "class 0"],
  ["C6A U7C C9A U10C A45U", "class 1"],
  ["G5U G8U C9U G38U", "class 0"],
  ["G5C C6G U7C U10C G38U", "class 1"],
  ["C6A U7A C9A U10A A23G C24G", "class 1"],
  ["C6A U7A U10A", "class 0"],
  ["G5A C6U U7A G8U C9A A30G A31G", "class 0"]
]}
